# condition-set: in ethyl acetate, 303.15 K
endpoint: solubility (mole fraction)
Answers are plain numbers.

Inquiry: I would be grateful if you could share the reported solubility (mole fraction) for "COc1cc(CC#N)cc(OC)c1OC" .
Reply text: 0.195

----------
# condition-set: in ethanol, 308.15 K
endpoint: solubility (mole fraction)
One number for each entry.

Inquiry: What value of measured solubility (mole fraction) is listed for "COc1cc(CC#N)cc(OC)c1OC" ?
Reply text: 0.0539

----------
# condition-set: in sec-butanol, 293.15 K
endpoint: solubility (mole fraction)
Give bare numbers.

Inquiry: Query: solubility (mole fraction); subject: "COc1cc(CC#N)cc(OC)c1OC"
Reply text: 0.0206

----------
# condition-set: in cyclohexane, 283.15 K
endpoint: solubility (mole fraction)
One number for each entry.

Inquiry: // solubility (mole fraction) lookup, key: "COc1cc(CC#N)cc(OC)c1OC"
Reply text: 0.000133

----------
# condition-set: in DMF, 313.15 K
endpoint: solubility (mole fraction)

Inquiry: Entry "COc1cc(CC#N)cc(OC)c1OC" : reported solubility (mole fraction) = ?
Reply text: 0.35

----------
# condition-set: in ethyl acetate, 293.15 K
endpoint: solubility (mole fraction)
Answers are plain numbers.

Inquiry: Given the compound "COc1cc(CC#N)cc(OC)c1OC" , what is its reported solubility (mole fraction)?
Reply text: 0.107

----------
# condition-set: in n-hexane, 318.15 K
endpoint: solubility (mole fraction)
One number for each entry.

Inquiry: Fill in the blank: the reported solubility (mole fraction) of "COc1cc(CC#N)cc(OC)c1OC" is ____.
Reply text: 0.00803

----------
# condition-set: in n-heptane, 323.15 K
endpoint: solubility (mole fraction)

Inquiry: Request the reported solubility (mole fraction) associated with "COc1cc(CC#N)cc(OC)c1OC"
Reply text: 0.00905

----------
# condition-set: in methanol, 283.15 K
endpoint: solubility (mole fraction)

Inquiry: Would you kindly share the measured solubility (mole fraction) for "COc1cc(CC#N)cc(OC)c1OC" ?
Reply text: 0.00958

----------
# condition-set: in ethanol, 293.15 K
endpoint: solubility (mole fraction)
One number for each entry.

Inquiry: Consider the compound shown here: "COc1cc(CC#N)cc(OC)c1OC" What is its recorded solubility (mole fraction)?
Reply text: 0.0141

----------
# condition-set: in n-propanol, 308.15 K
endpoint: solubility (mole fraction)
Answers are plain numbers.

Inquiry: What measured solubility (mole fraction) goes with "COc1cc(CC#N)cc(OC)c1OC" ?
Reply text: 0.041

----------
# condition-set: in n-propanol, 318.15 K
endpoint: solubility (mole fraction)
One number for each entry.

Inquiry: // solubility (mole fraction) lookup, key: "COc1cc(CC#N)cc(OC)c1OC"
Reply text: 0.111

----------
# condition-set: in n-butanol, 313.15 K
endpoint: solubility (mole fraction)
Answers are plain numbers.

Inquiry: Could you share which solubility (mole fraction) value was measured for "COc1cc(CC#N)cc(OC)c1OC" ?
Reply text: 0.0657

----------
# condition-set: in ethanol, 288.15 K
endpoint: solubility (mole fraction)

Inquiry: Any idea what its solubility (mole fraction) is? The compound is "COc1cc(CC#N)cc(OC)c1OC"
Reply text: 0.00999

----------
# condition-set: in n-butanol, 298.15 K
endpoint: solubility (mole fraction)
Numbers only.

Inquiry: Any idea what solubility (mole fraction) was measured for "COc1cc(CC#N)cc(OC)c1OC" ?
Reply text: 0.018

----------
# condition-set: in cyclohexane, 298.15 K
endpoint: solubility (mole fraction)

Inquiry: Give its solubility (mole fraction) value. Item: "COc1cc(CC#N)cc(OC)c1OC"
Reply text: 0.000814

----------
# condition-set: in ethanol, 303.15 K
endpoint: solubility (mole fraction)
One number for each entry.

Inquiry: Would you kindly share the measured solubility (mole fraction) for "COc1cc(CC#N)cc(OC)c1OC" ?
Reply text: 0.0327

----------
# condition-set: in methanol, 318.15 K
endpoint: solubility (mole fraction)
Answers are plain numbers.

Inquiry: Suppose we examine the molecule "COc1cc(CC#N)cc(OC)c1OC" ; what solubility (mole fraction) value has been reported?
Reply text: 0.183

----------
# condition-set: in n-hexane, 308.15 K
endpoint: solubility (mole fraction)
Numbers only.

Inquiry: Tell me the measured solubility (mole fraction) of "COc1cc(CC#N)cc(OC)c1OC" , please.
Reply text: 0.0035

----------
# condition-set: in n-butanol, 323.15 K
endpoint: solubility (mole fraction)
Answers are plain numbers.

Inquiry: Please report the recorded solubility (mole fraction) for "COc1cc(CC#N)cc(OC)c1OC" .
Reply text: 0.193

----------
# condition-set: in ethanol, 283.15 K
endpoint: solubility (mole fraction)
Give bare numbers.

Inquiry: // solubility (mole fraction) lookup, key: "COc1cc(CC#N)cc(OC)c1OC"
Reply text: 0.00753

----------
# condition-set: in n-heptane, 288.15 K
endpoint: solubility (mole fraction)

Inquiry: solubility (mole fraction) lookup needed for "COc1cc(CC#N)cc(OC)c1OC" , thanks.
Reply text: 0.000146

----------
# condition-set: in n-butanol, 283.15 K
endpoint: solubility (mole fraction)
Answers are plain numbers.

Inquiry: Returns the measured solubility (mole fraction) for the input molecule. Input: "COc1cc(CC#N)cc(OC)c1OC"
Reply text: 0.00774

----------
# condition-set: in n-propanol, 293.15 K
endpoint: solubility (mole fraction)
Answers are plain numbers.

Inquiry: Consider the compound shown here: "COc1cc(CC#N)cc(OC)c1OC" What is its recorded solubility (mole fraction)?
Reply text: 0.0127

----------
# condition-set: in n-heptane, 303.15 K
endpoint: solubility (mole fraction)
One number for each entry.

Inquiry: Look up solubility (mole fraction) for this compound: "COc1cc(CC#N)cc(OC)c1OC"
Reply text: 0.00141

----------
# condition-set: in n-butanol, 293.15 K
endpoint: solubility (mole fraction)
Answers are plain numbers.

Inquiry: Could you tell me which solubility (mole fraction) is on file for "COc1cc(CC#N)cc(OC)c1OC" ?
Reply text: 0.0129

----------
# condition-set: in sec-butanol, 288.15 K
endpoint: solubility (mole fraction)
One number for each entry.

Inquiry: Which solubility (mole fraction) value belongs to "COc1cc(CC#N)cc(OC)c1OC" ?
Reply text: 0.0137

----------
# condition-set: in methanol, 308.15 K
endpoint: solubility (mole fraction)
One number for each entry.

Inquiry: # input compound: "COc1cc(CC#N)cc(OC)c1OC" ; wanted: its solubility (mole fraction)
Reply text: 0.0638

----------
# condition-set: in isopropyl acetate, 303.15 K
endpoint: solubility (mole fraction)

Inquiry: Form field: reported solubility (mole fraction) of "COc1cc(CC#N)cc(OC)c1OC"
Reply text: 0.135

----------
# condition-set: in n-hexane, 283.15 K
endpoint: solubility (mole fraction)
Give bare numbers.

Inquiry: I am curious: what solubility (mole fraction) value has been reported for "COc1cc(CC#N)cc(OC)c1OC" ?
Reply text: 0.000515

----------
# condition-set: in ethyl acetate, 313.15 K
endpoint: solubility (mole fraction)
One number for each entry.

Inquiry: Reported solubility (mole fraction), compound "COc1cc(CC#N)cc(OC)c1OC" : ____
Reply text: 0.315

----------
# condition-set: in isopropyl acetate, 283.15 K
endpoint: solubility (mole fraction)
Answers are plain numbers.

Inquiry: What does the record list as solubility (mole fraction) for "COc1cc(CC#N)cc(OC)c1OC" ?
Reply text: 0.0389

----------
# condition-set: in ethanol, 323.15 K
endpoint: solubility (mole fraction)
One number for each entry.

Inquiry: Looking for the measured solubility (mole fraction) of "COc1cc(CC#N)cc(OC)c1OC" , can you help?
Reply text: 0.312

----------
# condition-set: in n-heptane, 308.15 K
endpoint: solubility (mole fraction)
Answers are plain numbers.

Inquiry: Would you mind telling me what solubility (mole fraction) value was observed for "COc1cc(CC#N)cc(OC)c1OC" ?
Reply text: 0.00222

----------
# condition-set: in sec-butanol, 323.15 K
endpoint: solubility (mole fraction)
Answers are plain numbers.

Inquiry: Given the compound "COc1cc(CC#N)cc(OC)c1OC" , what is its reported solubility (mole fraction)?
Reply text: 0.301

----------
# condition-set: in methanol, 298.15 K
endpoint: solubility (mole fraction)

Inquiry: Entry under review: "COc1cc(CC#N)cc(OC)c1OC" . Reported solubility (mole fraction)?
Reply text: 0.0261

----------
# condition-set: in methanol, 323.15 K
endpoint: solubility (mole fraction)
Give bare numbers.

Inquiry: Reported solubility (mole fraction), compound "COc1cc(CC#N)cc(OC)c1OC" : ____
Reply text: 0.327

----------
# condition-set: in n-propanol, 313.15 K
endpoint: solubility (mole fraction)
One number for each entry.

Inquiry: For "COc1cc(CC#N)cc(OC)c1OC" , what is its reported solubility (mole fraction)?
Reply text: 0.0658

----------
# condition-set: in isopropyl acetate, 293.15 K
endpoint: solubility (mole fraction)
One number for each entry.

Inquiry: # lookup: solubility (mole fraction) of "COc1cc(CC#N)cc(OC)c1OC"
Reply text: 0.0736

----------
# condition-set: in isopropyl acetate, 288.15 K
endpoint: solubility (mole fraction)
Answers are plain numbers.

Inquiry: Entry "COc1cc(CC#N)cc(OC)c1OC" has what solubility (mole fraction)?
Reply text: 0.0537
